B1: NELF-E aptamer (parent)
chain: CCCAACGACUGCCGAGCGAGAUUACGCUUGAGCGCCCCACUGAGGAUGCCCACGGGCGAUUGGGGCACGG

# Variants of: B1
# assay-procedure: HiTS-RAP
# condition-context: with NELF-E (Drosophila)
Binning scheme for Kd: b0: < 6 nM; b1: ≥ 6 nM and < 7 nM; b2: ≥ 7 nM

> print(dat)
    variant.string  cat
 1       C13G G55A   b1
 2        C9G G54A   b2
 3        A5U G32A   b0
 4       A15G G16U   b0
 5        A5U U29A   b0
 6            G54A   b2
 7        A5U C53U   b0
 8        A5G G11A   b1
 9            U28G   b1
10       C13G G18U   b1
11       A59G G64A   b2
12        C9G G30U   b1
13        A4C C12G   b2
14       C13G C40G   b0
15        G7U C57U   b1
16       G14A C53U   b0
17        C9G C17U   b0
18       U29G U60A   b2
19        G7A G14U   b1
20            G55A   b2
